Test: Pharmacokinetic study of mice via intravenous injection and oral administration
Format: in vivo
Conditions: mouse; Oral administration (10mg/kg), male CD-1 mice, plasma; a: mixed blood samples, b: mean of individual samples
Examples of molecules with documented AUC(0-inf) follow.
Could you give me the number in µg·h/mL? Just the number is fine.

Study these solved cases before continuing.
CC1=C(c2c(F)c(S(=O)(=O)NC3(C#N)CC3)cc3c(-c4nnc(C(F)F)s4)nn(C)c23)CCN(S(=O)(=O)C(C)C)C1: 11.3
CC(C)S(=O)(=O)N1CC=C(c2c(F)c(S(=O)(=O)NC3(C#N)CC3)cc3c(-c4nnc(C(F)(F)F)s4)nn(C)c23)CC1: 32.8
CC(C)S(=O)(=O)N1CC=C(c2c(F)c(S(=O)(=O)NC3(C#N)CC3)cc3c(-c4nnc(C(F)F)s4)nn(C)c23)CC1: 12
CC1=C(c2c(F)c(S(=O)(=O)NC3(C#N)CC3)cc3c(-c4nnc(C(F)(F)F)s4)nn(C)c23)CCN(S(=O)(=O)C(C)C)C1: 46.9

Could you now consider this next molecule?
Item: CC(C)C(=O)N1CC=C(c2c(F)c(S(=O)(=O)NC3(C#N)CC3)cc3c(-c4nnc(C(F)F)s4)nn(C)c23)CC1 | AUC(0-inf): 11.5

---

Experiment: Pharmacokinetic study of mice via intravenous injection and oral administration
Assay type: in vivo
Details: mouse; Oral administration (10mg/kg), male CD-1 mice, plasma; a: mixed blood samples, b: mean of individual samples
quantity.kind: AUC(0-t) (ng·h/mL)
Report as a plain number; the unit ng·h/mL is understood.

Worked examples follow.
CC1=C(c2c(F)c(S(=O)(=O)NC3(C#N)CC3)cc3c(-c4nnc(C(F)F)s4)nn(C)c23)CCN(S(=O)(=O)C(C)C)C1 [Compound 4]: 11000
CC(C)S(=O)(=O)N1CC=C(c2c(F)c(S(=O)(=O)NC3(C#N)CC3)cc3c(-c4nnc(C(F)(F)F)s4)nn(C)c23)CC1 [Compound 1]: 32800
CC1=C(c2c(F)c(S(=O)(=O)NC3(C#N)CC3)cc3c(-c4nnc(C(F)(F)F)s4)nn(C)c23)CCN(S(=O)(=O)C(C)C)C1 [Compound 2]: 46700

For reference, reported AUC(0-t) for CC(C)C(=O)N1CC=C(c2c(F)c(S(=O)(=O)NC3(C#N)CC3)cc3c(-c4nnc(C(F)F)s4)nn(C)c23)CC1 [Compound 9] stands at 11500

The value of AUC(0-t) measured for the compound CC(C)S(=O)(=O)N1CC=C(c2c(F)c(S(=O)(=O)NC3(C#N)CC3)cc3c(-c4nnc(C(F)F)s4)nn(C)c23)CC1 [Compound 3] turned out to be 12000
